System: Recombinant Human FGFR1 alpha (IIIc) Fc Chimera Protein
Test: Binding affinity of enzymatically synthesized cyclic peptide to FGFR by ELISA
Settings: luminescence signal at reaction concentration 10 nmol/L, SEQ ID NO: 39 standardized to 1, enzyme synthesis product
Bridge positions count the residues as written; N and C are the ends. Ends that are not written are not given here. COCH2 = acetyl group that carries the bridge
REPORTED ENDPOINT: Evaluation result of binding affinity to FGFR

- 182 (HCSYERLQFHGHYAPFRVK(COCH2)V; thioether 2-19 via Ac) [compound 182]: A (0.7 or more)
- 258 (ECYHKLIFLGWEAPFWHK(COCH2)E; thioether 2-18 (inferred)) [compound 258]: A (0.7 or more)
- 301 (HCSYERLMFHGHEAPFRVK(COCH2)V; thioether 2-19 (inferred)) [compound 301]: A (0.7 or more)
- 57 (HCAYERLQFHGHEAPFRVK(COCH2)V; thioether 2-19 (inferred)) [compound 57]: A (0.7 or more)
- 179 (HCSYERLQFHGHIAPFRVK(COCH2)V; thioether 2-19 (inferred)) [compound 179]: A (0.7 or more)

----------
Test system: Recombinant Human FGFR1 alpha (IIIc) Fc Chimera Protein
Assay: Binding affinity of enzymatically synthesized cyclic peptide to FGFR by ELISA
Settings: luminescence signal at reaction concentration 10 nmol/L, SEQ ID NO: 39 standardized to 1, enzyme synthesis product
Bridge positions count the residues as written; N and C are the ends. Ends that are not written are not given here. COCH2 = acetyl group that carries the bridge
REPORTED ENDPOINT: Evaluation result of binding affinity to FGFR

• 101 (HCSWERLQFHGHEAPFRVK(COCH2)V; thioether 2-19 (inferred)) [compound 101] = A (0.7 or more)
• 284 (HCKYERLQFHGHEAPFRVK(COCH2)V; thioether 2-19 (inferred)) [compound 284] = A (0.7 or more)
• 151 (HCSYERLWFHGHEAPFRVK(COCH2)V; thioether 2-19 (inferred)) [compound 151] = A (0.7 or more)

----------
System: Recombinant Human FGFR1 alpha (IIIc) Fc Chimera Protein
Experiment: Binding affinity of enzymatically synthesized cyclic peptide to FGFR by ELISA
Conditions: luminescence signal at reaction concentration 10 nmol/L, SEQ ID NO: 39 standardized to 1, enzyme synthesis product
Bridge positions count the residues as written; N and C are the ends. Ends that are not written are not given here. COCH2 = acetyl group that carries the bridge
REPORTED ENDPOINT: Evaluation result of binding affinity to FGFR

* 81 (RCSYERLQFHGHEAPFRVKV; not fully specified; Description of Artificial Sequence: Cyclic peptide) [compound 81] | A (0.7 or more)
* 175 (HCSYERLQFRGHEAPFRVK(COCH2)V; thioether 2-19 (inferred)) [compound 175] | A (0.7 or more)

----------
Tested on: Recombinant Human FGFR1 alpha (IIIc) Fc Chimera Protein
Assay: Binding affinity of enzymatically synthesized cyclic peptide to FGFR by ELISA
Settings: luminescence signal at reaction concentration 10 nmol/L, SEQ ID NO: 39 standardized to 1, enzyme synthesis product
Bridge positions count the residues as written; N and C are the ends. Ends that are not written are not given here. COCH2 = acetyl group that carries the bridge
REPORTED ENDPOINT: Evaluation result of binding affinity to FGFR

• 67 (GCSYERLQFHGHEAPFRVK(COCH2)V; thioether 2-19 (inferred)) [compound 67] = A (0.7 or more)
• 87 (HCFYERLQFHGHEAPFRVKV; not fully specified; Description of Artificial Sequence: Cyclic peptide) [compound 87] = A (0.7 or more)

----------
Test system: Recombinant Human FGFR1 alpha (IIIc) Fc Chimera Protein
Assay: Binding affinity of enzymatically synthesized cyclic peptide to FGFR by ELISA
Conditions: luminescence signal at reaction concentration 10 nmol/L, SEQ ID NO: 39 standardized to 1, enzyme synthesis product
Bridge positions count the residues as written; N and C are the ends. Ends that are not written are not given here. COCH2 = acetyl group that carries the bridge
REPORTED ENDPOINT: Evaluation result of binding affinity to FGFR

• 171 (HCSYERLQFQGHEAPFRVK(COCH2)V; thioether 2-19 (inferred)) [compound 171] = A (0.7 or more)
• 85 (HCIYERLQFHGHEAPFRVKV; not fully specified; Description of Artificial Sequence: Cyclic peptide) [compound 85] = A (0.7 or more)
• 181 (HCSYERLQFHGHFAPFRVK(COCH2)V; thioether 2-19 via Ac) [compound 181] = A (0.7 or more)

----------
Tested on: Recombinant Human FGFR1 alpha (IIIc) Fc Chimera Protein
Test: Binding affinity of enzymatically synthesized cyclic peptide to FGFR by ELISA
Details: luminescence signal at reaction concentration 10 nmol/L, SEQ ID NO: 39 standardized to 1, enzyme synthesis product
Bridge positions count the residues as written; N and C are the ends. Ends that are not written are not given here. COCH2 = acetyl group that carries the bridge
REPORTED ENDPOINT: Evaluation result of binding affinity to FGFR

• 153 (HCSYERLSFHGHEAPFRVK(COCH2)V; thioether 2-19 (inferred)) [compound 153] = A (0.7 or more)
• 335 (HCSYERLIFRGHIAPFWVK(COCH2)V; thioether 2-19 (inferred)) [compound 335] = A (0.7 or more)
• 148 (HCSYERLVFHGHEAPFRVK(COCH2)V; thioether 2-19 (inferred)) [compound 148] = A (0.7 or more)
• 187 (HCSYERLQFHGHTAPFRVK(COCH2)V; thioether 2-19 via Ac) [compound 187] = A (0.7 or more)

----------
Test system: Recombinant Human FGFR1 alpha (IIIc) Fc Chimera Protein
Assay: Binding affinity of enzymatically synthesized cyclic peptide to FGFR by ELISA
Conditions: luminescence signal at reaction concentration 10 nmol/L, SEQ ID NO: 39 standardized to 1, enzyme synthesis product
Bridge positions count the residues as written; N and C are the ends. Ends that are not written are not given here. COCH2 = acetyl group that carries the bridge
REPORTED ENDPOINT: Evaluation result of binding affinity to FGFR

- 165 (HCSYERLQFIGHEAPFRVK(COCH2)V; thioether 2-19 (inferred)) [compound 165]: A (0.7 or more)
- 167 (HCSYERLQFFGHEAPFRVK(COCH2)V; thioether 2-19 (inferred)) [compound 167]: A (0.7 or more)
- 217 (HCSYERLQFHGHEAPFRVK(COCH2)Q; thioether 2-19 via Ac; not fully specified) [compound 217]: A (0.7 or more)
